Where these numbers come from: patent US5994373A

# System: nicotinic acetylcholine receptors
# TEST DESCRIPTION: inhibition of specific binding of ^3 H-methylcarbamylcholine (^3 H-MCC) in rat brain tissue
# PARTICULARS: IC50 ^3 H-Oxo / IC50 ^3 H-MCC, rat cortical receptors
PROPERTY MEASURED: Oxo/MCC Ratio

Some compounds with known Oxo/MCC Ratio results, for comparison:
# COMPOUND, Oxo/MCC Ratio
data = [
    ("CCCNc1oncc1C1=CCCN(C)C1.O=C(O)C(=O)O", 130),
    ("CNc1oncc1C1=CCCN(C)C1.O=C(O)C(=O)O", 19),
]

(1) CCNc1oncc1C1=CCCN(C)C1.O=C(O)C(=O)O
(2) CN1CCC=C(c2cnoc2NCc2ccccc2)C1.O=C(O)C(=O)O
Which shows the larger Oxo/MCC Ratio value: 1 or 2 ? Give the chosen item's label as your response.
2
(2: 47, 1: 23)

====

# SYSTEM TESTED: nicotinic acetylcholine receptors
# TEST DESCRIPTION: inhibition of specific binding of ^3 H-methylcarbamylcholine (^3 H-MCC) in rat brain tissue
# PARTICULARS: rat cortical receptors; ^3 H-MCC 2 nM, 0° C., 60 min
pIC50: −log10 of the molar value.
PROPERTY MEASURED: pIC50

(1) CCCNc1oncc1C1=CCCN(C)C1.O=C(O)C(=O)O [Compound 7, oxalate]
(2) CNc1oncc1C1=CCCN(C)C1.O=C(O)C(=O)O [Compound 3, oxalate]
Which shows the larger pIC50 value: 1 or 2 ? Give the chosen item's label as your response.
1

====

# SYSTEM TESTED: muscarinic acetylcholine receptors
# TEST DESCRIPTION: inhibition of specific binding of ^3 H-Oxotremorine-M (^3 H-Oxo) in rat cortex
# PARTICULARS: rat cortical receptors; 1.0 nM radioligand, 25° C., 30 min
PROPERTY MEASURED: IC50 (µM)

# COMPOUND, IC50 [µM]
measured = [
    ("CCCNc1oncc1C1=CCCN(C)C1.O=C(O)C(=O)O [Compound 7, oxalate]", 5.2),
    ("CN1CCC=C(c2cnoc2NCc2ccccc2)C1.O=C(O)C(=O)O [Compound 14, oxalate]", 4),
]

(I) CNc1oncc1C1=CCCN(C)C1.O=C(O)C(=O)O [Compound 3, oxalate]
(II) CCNc1oncc1C1=CCCN(C)C1.O=C(O)C(=O)O [Compound 5, oxalate]
Form: Entry with minimum IC50 (choose one): I / II Give the chosen item's label as your response.
II
